- measured target: UBE2D3; also: test concentration or dose not given here
- test summary: reporter assay of Huesken 2005
- particulars: siRNA
Oligonucleotides are given in HELM: sugar(base)linkage, 5' to 3'; d 2'-deoxyribose, r ribose, m 2'-O-methylribose, p phosphate. ss, as = sense and antisense strand
Overview of reported normalised inhibition (eCFP-eYFP dual reporter) across a group of substances:
Just the number please, in %, no unit attached.

# count of solved cases: 3
>  <substance>
RNA1{r(G)p.r(G)p.r(U)p.r(C)p.r(C)p.r(A)p.r(G)p.r(U)p.r(U)p.r(G)p.r(G)p.r(G)p.r(G)p.r(A)p.r(U)p.r(G)p.r(A)p.r(U)p.r(A)p.d(T)p.d(T)}|RNA2{r(U)p.r(A)p.r(U)p.r(C)p.r(A)p.r(U)p.r(C)p.r(C)p.r(C)p.r(C)p.r(A)p.r(A)p.r(C)p.r(U)p.r(G)p.r(G)p.r(A)p.r(C)p.r(C)p.d(T)p.d(G)}$$$RNA1{StrandType:ss}|RNA2{StrandType:as}$

>  <value unit>
%

>  <observed measurement>
93.7

$$$$
>  <substance>
RNA1{r(C)p.r(C)p.r(A)p.r(G)p.r(A)p.r(G)p.r(A)p.r(U)p.r(U)p.r(G)p.r(C)p.r(A)p.r(C)p.r(G)p.r(G)p.r(A)p.r(U)p.r(C)p.r(U)p.d(T)p.d(T)}|RNA2{r(A)p.r(G)p.r(A)p.r(U)p.r(C)p.r(C)p.r(G)p.r(U)p.r(G)p.r(C)p.r(A)p.r(A)p.r(U)p.r(C)p.r(U)p.r(C)p.r(U)p.r(G)p.r(G)p.d(C)p.d(A)}$$$RNA1{StrandType:ss}|RNA2{StrandType:as}$

>  <value unit>
%

>  <observed measurement>
82

$$$$
>  <substance>
RNA1{r(U)p.r(G)p.r(G)p.r(U)p.r(C)p.r(G)p.r(C)p.r(C)p.r(U)p.r(G)p.r(C)p.r(U)p.r(U)p.r(U)p.r(A)p.r(A)p.r(C)p.r(A)p.r(A)p.d(T)p.d(T)}|RNA2{r(U)p.r(U)p.r(G)p.r(U)p.r(U)p.r(A)p.r(A)p.r(A)p.r(G)p.r(C)p.r(A)p.r(G)p.r(G)p.r(C)p.r(G)p.r(A)p.r(C)p.r(C)p.r(A)p.d(C)p.d(T)}$$$RNA1{StrandType:ss}|RNA2{StrandType:as}$

>  <value unit>
%

>  <observed measurement>
90.3

$$$$

Inquiry: Suppose we examine the substance `RNA1{r(G)p.r(A)p.r(U)p.r(C)p.r(C)p.r(A)p.r(A)p.r(A)p.r(C)p.r(C)p.r(C)p.r(A)p.r(G)p.r(A)p.r(U)p.r(G)p.r(A)p.r(C)p.r(C)p.d(T)p.d(T)}|RNA2{r(G)p.r(G)p.r(U)p.r(C)p.r(A)p.r(U)p.r(C)p.r(U)p.r(G)p.r(G)p.r(G)p.r(U)p.r(U)p.r(U)p.r(G)p.r(G)p.r(A)p.r(U)p.r(C)p.d(A)p.d(C)}$$$RNA1{StrandType:ss}|RNA2{StrandType:as}$` ; what normalised inhibition (eCFP-eYFP dual reporter) value has been reported?
Reply text: 56.5

Inquiry: And then `RNA1{r(C)p.r(A)p.r(U)p.r(U)p.r(U)p.r(A)p.r(C)p.r(A)p.r(A)p.r(C)p.r(A)p.r(A)p.r(G)p.r(A)p.r(A)p.r(U)p.r(U)p.r(U)p.r(A)p.d(T)p.d(T)}|RNA2{r(U)p.r(A)p.r(A)p.r(A)p.r(U)p.r(U)p.r(C)p.r(U)p.r(U)p.r(G)p.r(U)p.r(U)p.r(G)p.r(U)p.r(A)p.r(A)p.r(A)p.r(U)p.r(G)p.d(C)p.d(A)}$$$RNA1{StrandType:ss}|RNA2{StrandType:as}$` , what is it?
Reply text: 70

Inquiry: And then `RNA1{r(U)p.r(C)p.r(U)p.r(A)p.r(A)p.r(G)p.r(A)p.r(U)p.r(C)p.r(A)p.r(C)p.r(A)p.r(G)p.r(U)p.r(G)p.r(G)p.r(U)p.r(C)p.r(G)p.d(T)p.d(T)}|RNA2{r(C)p.r(G)p.r(A)p.r(C)p.r(C)p.r(A)p.r(C)p.r(U)p.r(G)p.r(U)p.r(G)p.r(A)p.r(U)p.r(C)p.r(U)p.r(U)p.r(A)p.r(G)p.r(A)p.d(A)p.d(T)}$$$RNA1{StrandType:ss}|RNA2{StrandType:as}$` , what is it?
Reply text: 43.3

Inquiry: And then `RNA1{r(A)p.r(U)p.r(G)p.r(U)p.r(U)p.r(U)p.r(C)p.r(A)p.r(U)p.r(U)p.r(G)p.r(G)p.r(C)p.r(A)p.r(A)p.r(G)p.r(C)p.r(C)p.r(A)p.d(T)p.d(T)}|RNA2{r(U)p.r(G)p.r(G)p.r(C)p.r(U)p.r(U)p.r(G)p.r(C)p.r(C)p.r(A)p.r(A)p.r(U)p.r(G)p.r(A)p.r(A)p.r(A)p.r(C)p.r(A)p.r(U)p.d(A)p.d(T)}$$$RNA1{StrandType:ss}|RNA2{StrandType:as}$` , what is it?
Reply text: 90.7

Inquiry: And then `RNA1{r(U)p.r(U)p.r(U)p.r(C)p.r(U)p.r(A)p.r(A)p.r(A)p.r(G)p.r(U)p.r(U)p.r(C)p.r(U)p.r(U)p.r(U)p.r(U)p.r(A)p.r(U)p.r(C)p.d(T)p.d(T)}|RNA2{r(G)p.r(A)p.r(U)p.r(A)p.r(A)p.r(A)p.r(A)p.r(G)p.r(A)p.r(A)p.r(C)p.r(U)p.r(U)p.r(U)p.r(A)p.r(G)p.r(A)p.r(A)p.r(A)p.d(T)p.d(T)}$$$RNA1{StrandType:ss}|RNA2{StrandType:as}$` , what is it?
Reply text: 30.6

Inquiry: And then `RNA1{r(C)p.r(A)p.r(U)p.r(U)p.r(G)p.r(G)p.r(C)p.r(A)p.r(A)p.r(G)p.r(C)p.r(C)p.r(A)p.r(C)p.r(A)p.r(A)p.r(U)p.r(U)p.r(A)p.d(T)p.d(T)}|RNA2{r(U)p.r(A)p.r(A)p.r(U)p.r(U)p.r(G)p.r(U)p.r(G)p.r(G)p.r(C)p.r(U)p.r(U)p.r(G)p.r(C)p.r(C)p.r(A)p.r(A)p.r(U)p.r(G)p.d(A)p.d(A)}$$$RNA1{StrandType:ss}|RNA2{StrandType:as}$` , what is it?
Reply text: 100

Inquiry: And then `RNA1{r(G)p.r(U)p.r(U)p.r(U)p.r(C)p.r(A)p.r(U)p.r(U)p.r(G)p.r(G)p.r(C)p.r(A)p.r(A)p.r(G)p.r(C)p.r(C)p.r(A)p.r(C)p.r(A)p.d(T)p.d(T)}|RNA2{r(U)p.r(G)p.r(U)p.r(G)p.r(G)p.r(C)p.r(U)p.r(U)p.r(G)p.r(C)p.r(C)p.r(A)p.r(A)p.r(U)p.r(G)p.r(A)p.r(A)p.r(A)p.r(C)p.d(A)p.d(T)}$$$RNA1{StrandType:ss}|RNA2{StrandType:as}$` , what is it?
Reply text: 94.9
